Assay: ATG_M_61_CIS: Attagene CIS-FACTORIAL HepG2 Assay for M61 Transcription Factor (Internal Marker) (AID 2282937)
Conditions: HepG2 Attagene CIS-FACTORIAL M61 internal marker reporter; actives raise or lower the signal
Activity calls are given as the source filed them. Rule for the calls: active = hit-call score of the fitted dose curve at least 0.9, where 1 is the maximum; inactive = score below 0.9.

# SMILES_REPR, outcome
measured = [
    ("CCCCCCCCOc1ccc(C(=O)c2ccccc2)c(O)c1", "inactive"),
    ("CCN(Cc1cccnc1)C(=O)c1cccc(Cl)c1[C@]1(C)C(=O)N(Cc2ccc(OC)cc2OC)c2ccc(Cl)cc21", "inactive"),
    ("Clc1cc(Cl)c2c(c1)N=C1CCCCCN1C2", "inactive"),
]
